species on record: Homo sapiens; assay: Activation of recombinant human C-terminal 4His-tagged CYP46A1 delta(2 to 50) Y427A mutant expressed in Escherichia coli at 20 uM using cholesterol as substrate measured after 30 mins in presence of cytochrome P450 oxidoreductase by gas chromatography-mass spectrometry
The source made the active and inactive calls. No cut-off for these calls is given here.
Outcomes: active, inactive

# molecule, category-label
data = [
    ("O=C1Nc2cc(O)c(Cl)cc2C(C#CC2CC2)(C(F)(F)F)O1 (racemic)", "active"),
    ("CCCC#CC1(C(F)(F)F)OC(=O)Nc2ccc(Cl)cc21 (racemic)", "inactive"),
    ("O=C1Nc2c(O)cc(Cl)cc2[C@@](C#CC2CC2)(C(F)(F)F)O1", "active"),
    ("O=C1Nc2ccc(Cl)cc2[C@@](C#CC2CC2)(C(F)(F)F)O1", "inactive"),
    ("O=C1CC(C#CC2CC2)(C(F)(F)F)c2cc(Cl)ccc2N1 (racemic)", "inactive"),
    ("FC(F)(F)[C@@]1(C#CC2CC2)OCNc2ccc(Cl)cc21", "active"),
    ("O=C1Cc2ccc(Cl)cc2C(C#CC2CC2)(C(F)(F)F)O1 (racemic)", "active"),
    ("CC1Nc2ccc(Cl)cc2C(C#CC2CC2)(C(F)(F)F)O1 (racemic)", "active"),
    ("O=C1Nc2c(O)cc(Cl)cc2C(C#CC2(O)CC2)(C(F)(F)F)O1 (racemic)", "active"),
]

----------
organism: Homo sapiens; test: Activation of recombinant human C-terminal 4His-tagged CYP46A1 delta(2 to 50) F405A mutant expressed in Escherichia coli at 20 uM using cholesterol as substrate measured after 30 mins in presence of cytochrome P450 oxidoreductase by gas chromatography-mass spectrometry
Active and inactive are the calls of the source. No cut-off for these calls is given here.
Outcomes: active, inactive

# compound, category-label
rows = [
    ("O=C1Nc2c(O)cc(Cl)cc2[C@@](C#CC2CC2)(C(F)(F)F)O1", "active"),
    ("O=C1Nc2c(O)cc(Cl)cc2C(C#CC2(O)CC2)(C(F)(F)F)O1 (racemic)", "inactive"),
    ("CCCC#CC1(C(F)(F)F)OC(=O)Nc2ccc(Cl)cc21 (racemic)", "active"),
    ("O=C1CC(C#CC2CC2)(C(F)(F)F)c2cc(Cl)ccc2N1 (racemic)", "active"),
    ("O=C1Nc2ccc(Cl)cc2[C@@](C#CC2CC2)(C(F)(F)F)O1 [EFAVIRENZ]", "active"),
    ("CC1Nc2ccc(Cl)cc2C(C#CC2CC2)(C(F)(F)F)O1 (racemic)", "inactive"),
    ("FC(F)(F)[C@@]1(C#CC2CC2)OCNc2ccc(Cl)cc21", "inactive"),
    ("O=C1Nc2cc(O)c(Cl)cc2C(C#CC2CC2)(C(F)(F)F)O1 (racemic)", "active"),
    ("O=C1Cc2ccc(Cl)cc2C(C#CC2CC2)(C(F)(F)F)O1 (racemic)", "active"),
]

----------
species on record: Homo sapiens; experiment: Activation of recombinant human C-terminal 4His-tagged CYP46A1 delta(2 to 50) Y427F mutant expressed in Escherichia coli at 20 uM using cholesterol as substrate measured after 30 mins in presence of cytochrome P450 oxidoreductase by gas chromatography-mass spectrometry
Calls of active or inactive are those of the source. No cut-off for these calls is given here.
Outcomes: 1.0 = active, 0.0 = inactive

# compound, category-label
data = [
    ("O=C1CC(C#CC2CC2)(C(F)(F)F)c2cc(Cl)ccc2N1 (racemic)", 0.0),
    ("O=C1Nc2c(O)cc(Cl)cc2[C@@](C#CC2CC2)(C(F)(F)F)O1", 1.0),
    ("O=C1Nc2cc(O)c(Cl)cc2C(C#CC2CC2)(C(F)(F)F)O1 (racemic)", 1.0),
    ("FC(F)(F)[C@@]1(C#CC2CC2)OCNc2ccc(Cl)cc21", 1.0),
    ("O=C1Nc2c(O)cc(Cl)cc2C(C#CC2(O)CC2)(C(F)(F)F)O1 (racemic)", 1.0),
    ("CC1Nc2ccc(Cl)cc2C(C#CC2CC2)(C(F)(F)F)O1 (racemic)", 1.0),
    ("CCCC#CC1(C(F)(F)F)OC(=O)Nc2ccc(Cl)cc21 (racemic)", 0.0),
    ("O=C1Cc2ccc(Cl)cc2C(C#CC2CC2)(C(F)(F)F)O1 (racemic)", 1.0),
]

----------
In this section, each of the compounds is paired with its reported fold change (FC).
test system: Cholesterol 24-hydroxylase (Homo sapiens), Q9Y6A2 [UNDEFINED MUTATION]; assay: Activation of recombinant human C-terminal 4His-tagged CYP46A1 delta(2 to 50) mutant expressed in Escherichia coli at 20 uM using cholesterol as substrate measured after 30 mins in presence of cytochrome P450 oxidoreductase by gas chromatography-mass spectrometry relative to control
Sequence (Q9Y6A2 whole entry, looked up, stated change not applied): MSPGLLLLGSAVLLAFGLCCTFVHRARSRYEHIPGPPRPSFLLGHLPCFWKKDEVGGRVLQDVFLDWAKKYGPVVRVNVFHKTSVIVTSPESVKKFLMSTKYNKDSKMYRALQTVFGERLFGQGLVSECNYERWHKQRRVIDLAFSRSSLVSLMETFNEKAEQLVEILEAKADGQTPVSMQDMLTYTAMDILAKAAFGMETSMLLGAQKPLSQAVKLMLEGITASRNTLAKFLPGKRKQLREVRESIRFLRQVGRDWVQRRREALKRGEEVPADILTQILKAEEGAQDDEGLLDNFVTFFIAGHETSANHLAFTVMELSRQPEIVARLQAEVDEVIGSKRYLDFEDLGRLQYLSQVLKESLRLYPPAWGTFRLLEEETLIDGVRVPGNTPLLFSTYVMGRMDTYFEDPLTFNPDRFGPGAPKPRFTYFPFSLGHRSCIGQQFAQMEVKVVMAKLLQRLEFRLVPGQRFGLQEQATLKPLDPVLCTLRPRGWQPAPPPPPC

# compound, fold change (FC)
data = [
    ("O=C1Cc2ccc(Cl)cc2C(C#CC2CC2)(C(F)(F)F)O1 (racemic)", 1.9),
    ("O=C1CC(C#CC2CC2)(C(F)(F)F)c2cc(Cl)ccc2N1 (racemic)", 3.9),
    ("CCCC#CC1(C(F)(F)F)OC(=O)Nc2ccc(Cl)cc21 (racemic)", 3.1),
    ("O=C1Nc2cc(O)c(Cl)cc2C(C#CC2CC2)(C(F)(F)F)O1 (racemic)", 5.8),
    ("FC(F)(F)[C@@]1(C#CC2CC2)OCNc2ccc(Cl)cc21", 2.5),
    ("CC1Nc2ccc(Cl)cc2C(C#CC2CC2)(C(F)(F)F)O1 (racemic)", 2.6),
    ("O=C1Nc2c(O)cc(Cl)cc2[C@@](C#CC2CC2)(C(F)(F)F)O1", 6.2),
    ("O=C1Nc2c(O)cc(Cl)cc2C(C#CC2(O)CC2)(C(F)(F)F)O1 (racemic)", 6.1),
]

----------
species: Homo sapiens; assay: Activation of recombinant human C-terminal 4His-tagged CYP46A1 delta(2 to 50) K358R mutant expressed in Escherichia coli at 20 uM using cholesterol as substrate measured after 30 mins in presence of cytochrome P450 oxidoreductase by gas chromatography-mass spectrometry
Activity calls are given as the source filed them. The calls are words filed in the database; no cut-off is given here.
Outcomes: T = active, F = inactive

# molecule, category-label
records = [
    ("O=C1Nc2c(O)cc(Cl)cc2C(C#CC2(O)CC2)(C(F)(F)F)O1 (racemic)", "T"),
    ("O=C1Nc2c(O)cc(Cl)cc2[C@@](C#CC2CC2)(C(F)(F)F)O1", "T"),
    ("FC(F)(F)[C@@]1(C#CC2CC2)OCNc2ccc(Cl)cc21", "T"),
    ("O=C1Nc2cc(O)c(Cl)cc2C(C#CC2CC2)(C(F)(F)F)O1 (racemic)", "T"),
    ("O=C1Cc2ccc(Cl)cc2C(C#CC2CC2)(C(F)(F)F)O1 (racemic)", "T"),
    ("O=C1CC(C#CC2CC2)(C(F)(F)F)c2cc(Cl)ccc2N1 (racemic)", "F"),
    ("CC1Nc2ccc(Cl)cc2C(C#CC2CC2)(C(F)(F)F)O1 (racemic)", "T"),
]
